target: T1, HLA-B*07:02 (human)
T1 construct: Peptide-receptive MHC monomer made by UV cleavage of a UV-sensitive peptide
protocol.text: UV-ligand exchange, anti-b2m ELISA; exchange yield grade (+ >10%, ++ >20%, +++ >50, ++++ >75%)
parameter.measured: peptide exchange yield

Example entries and their recorded answers appear below.
1) ISTPSEVSTPL; 20 to 50%
2) FPYPYAERL; 20 to 50%
3) RPASSLRP; 20 to 50%
4) KPAHYPLIAL; 50 to 75%
5) SPGDKRLAA; 50 to 75%
6) FPTEVTPHAF; 20 to 50%
7) LPDGSRVEL; 20 to 50%
8) VPDGVSKVL; 20 to 50%

Using the record for "MVPSAGQLALF" , report its peptide exchange yield.
20 to 50%

Also, "VPSLQRLML" please.
50 to 75%

Check "VVHPRTLLL" too.
20 to 50%
